B1: Protein S100-G, residues 1 to 79; numbered along this chain, P02633 (parent)
chain: MSAKKSPEELKGIFEKYAAKEGDPNQLSKEELKLLLQTEFPSLLKGPSTLDELFEELDKNGDGEVSFEEFQVLVKKISQ

Variants of: B1
assayProtocol: abundance fitness (aPCA) (normalised: wild type 0, dead -1); higher = more abundant; growth selection in yeast, the domain comes from the species named
testParameters: Bos taurus
Short version: abundance fitness at least -0.09 is 1 (yes), less is 0 (no).

These solved cases illustrate the format of a correct answer.
[[record]]
mutationspec = "L35Q"
classname = "0 (no)"

[[record]]
mutationspec = "L73E"
classname = "0 (no)"

[[record]]
mutationspec = "E30W"
classname = "1 (yes)"

[[record]]
mutationspec = "Y17M"
classname = "0 (no)"

[[record]]
mutationspec = "S66T"
classname = "1 (yes)"


Exam item: Check the entry Q71C : does abundance fitness equal or exceed -0.09?
Marked response: 0 (no)

Exam item: Again, but for S48I
Marked response: 1 (yes)
